Each recorded value in this set is attributed to patent US20250320312A1.

Measurement target: Peptide 5: Biotin-…-[Tyr(PC)]-acid
Sequence (peptide, as listed by the source): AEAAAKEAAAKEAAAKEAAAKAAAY
Assay: scFv ELISA
Quick list: OD450 per entry.
Write it as a number; the unit OD450 goes unstated.

- PcOxP_DB02_E11 (scFv, V domains shown, scFv in periplasmic extract) VH: EVQLLESGGGLVQPGGSLRLSCAASGFTFSDQYMEWVRQAPGKGLEWVAASRNKANDYTVEYADSVKGRFTISRDNSKNTLYLQMNSLRAEDTAVYYCARDYYGSSYWYFDVWGQGTLVTVSS VL: DIVMTQSPDSLAVSLGERATINCKSSESLLYSKNNKNYLAWYQQKPGQPPKLLIYGASNRYSGVPDRFSGSGSGTDFTLTISSLQAEDVAVYYCAQFYSYPLTFGGGTKVEIK: 0.76

IN: Dear colleague, I am looking for the recorded OD450 of the following binder: PcOxP_DB01_H10 (scFv, V domains shown, scFv in periplasmic extract) VH: EVQLLESGGGLVQPGGSLRLSCAASGFTFSDGYMEWVRQAPGKGLEWVAASRNKNNDYTTEYADSVKGRFTISRDNSKNTLYLQMNSLRAEDTAVYYCARDYYGSSYWYFDVWGQGTLVTVSS VL: DIQMTQSPSSLSASVGDRVTITCTASESLYSSKHKVHYLAWYQQKPGKAPKLLIYGASNRYFGVPSRFSGSGSGTDFTLTISSLQPEDFATYYCAQFYQYPLTFGGGTKVEIK
OUT: 1.39
